target: Tyrosine-protein phosphatase non-receptor type 22 (Homo sapiens) (UniProt Q9Y2R2); assay: LYP phosphatase inhibitors, primary screen, biochemical, DiFMUP fluorescence, recombinant catalytic domain, 10 µM (AID 606); details: at 10 µM, hits give high values
Sequence (Q9Y2R2 whole entry, looked up, the tested form may be a part): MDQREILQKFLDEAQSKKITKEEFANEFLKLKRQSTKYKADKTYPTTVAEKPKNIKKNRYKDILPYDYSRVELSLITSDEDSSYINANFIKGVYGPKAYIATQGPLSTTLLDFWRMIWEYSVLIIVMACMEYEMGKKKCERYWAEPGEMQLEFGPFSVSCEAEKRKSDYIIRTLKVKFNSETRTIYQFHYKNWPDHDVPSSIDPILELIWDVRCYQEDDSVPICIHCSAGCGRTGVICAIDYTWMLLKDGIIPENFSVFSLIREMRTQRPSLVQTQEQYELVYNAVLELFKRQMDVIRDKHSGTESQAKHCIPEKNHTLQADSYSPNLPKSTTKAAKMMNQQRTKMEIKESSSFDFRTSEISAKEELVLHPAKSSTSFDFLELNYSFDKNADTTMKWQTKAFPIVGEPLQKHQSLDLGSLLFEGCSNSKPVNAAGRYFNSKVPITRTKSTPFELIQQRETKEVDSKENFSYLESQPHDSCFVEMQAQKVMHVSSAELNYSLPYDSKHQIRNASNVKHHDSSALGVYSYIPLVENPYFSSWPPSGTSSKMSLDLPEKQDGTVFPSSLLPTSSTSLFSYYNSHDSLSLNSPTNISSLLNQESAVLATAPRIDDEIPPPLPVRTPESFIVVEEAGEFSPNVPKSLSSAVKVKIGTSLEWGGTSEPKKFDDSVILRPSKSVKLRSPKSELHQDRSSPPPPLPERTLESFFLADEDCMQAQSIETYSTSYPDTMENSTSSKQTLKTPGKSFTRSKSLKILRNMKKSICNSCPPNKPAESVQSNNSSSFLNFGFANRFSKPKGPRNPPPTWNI
The whole screen tested about 52,000 compounds, of which fewer than 10 were called active. The list is a sample of the results.
Provide the reported inhibition of each item.
# unit: % | format: bare number

stdin: Name the reported inhibition value associated with the molecule Cc1nn2c3c(cnc2c1-c1ccccc1)C(=O)CC(c1ccco1)C3 (stereo not drawn)
stdout: 3.63

stdin: Can you share its inhibition? I mean this molecule: COc1ccc(NC2CCN(C3CC(=O)N(c4ccc(F)c(Cl)c4)C3=O)CC2)cc1 (stereo not drawn)
stdout: 4.79

stdin: Quick one: inhibition of COc1ccc2c(C)cc(SCC(=O)N3CCOCC3)nc2c1 ?
stdout: 8.83

stdin: I am curious: what inhibition value has been reported for O=C(OCN1C(=O)c2ccccc2C1=O)c1cccs1 ?
stdout: 8.67

stdin: # input molecule: O=S(=O)(Nc1ccc2c(c1)oc1ccccc12)N1CCCC1 ; wanted: its inhibition
stdout: -2.32

stdin: // lookup inhibition for CCOC(=O)c1cc2c(=O)n3cccc(C)c3nc2n(Cc2ccco2)c1=NC(=O)c1cccnc1
stdout: 12.3

stdin: Suppose we examine the molecule COC(=O)C1=C(C)n2nnnc2NC1c1cc2ccccc2o1 (stereo not drawn) ; what inhibition value has been reported?
stdout: 12.9

stdin: Need inhibition, item O=C(NCC1CCCO1)[C@@H]1CSC2c3ccccc3C(=O)N21 (stereo partly drawn)
stdout: -1.83

stdin: I'd like to know its inhibition. The molecule in question is CC(=O)NC(c1ccccc1)c1nc2ccccc2[nH]1 (stereo not drawn)
stdout: -1.04

stdin: Would you kindly share the measured inhibition for CC(=O)NC12CC3CC(C1)CC(C(=O)OCC(=O)Nc1ncc(Cl)c(C)c1Cl)(C3)C2 ?
stdout: 3.56

stdin: May I ask what inhibition has been recorded for COc1ccc(CCNc2cc(=O)[nH]c(N)n2)cc1 ?
stdout: 16.4

stdin: Given CCc1cc(C(=O)Nc2ccccc2)cs1 , state its recorded inhibition.
stdout: 0.95

stdin: I am curious: what inhibition value has been reported for CCOC(=O)Cn1c(=N)n(Cc2ccccc2)c2ccccc21 ?
stdout: -0.97

stdin: I would be grateful if you could share the reported inhibition for CC1CN(C(=O)c2cc3c(=O)n4ccccc4nc3s2)CC(C)O1 (stereo not drawn) .
stdout: 14.8

stdin: Which value of inhibition has been reported for CC(=O)c1c(N2CCN(c3ccccc3)CC2)nc(=S)n(-c2ccccc2)c1C in the records?
stdout: 3.4

stdin: Can you share its inhibition? I mean this molecule: COc1cccc(NC(=O)c2ccc(CN3CCOCC3)cc2)c1
stdout: 8.87

stdin: Any idea what inhibition was measured for CCOc1ccc(C(=O)NCCCN(CC)CC)cc1 ?
stdout: 16.6

stdin: Reported inhibition, molecule CCCn1c(CN2CCCCC2CC)nc2c1c(=O)n(C)c(=O)n2C (stereo not drawn) : ____
stdout: -4.26

stdin: Could you share which inhibition value was measured for CCN(CC)CCOC(=O)c1ccc(N=CC2=C(O)CC(C)(C)CC2=O)cc1 ?
stdout: 4.23

stdin: For O=C(Nc1c(C(=O)N2CCOCC2)cnn1-c1ccccc1)c1ccccc1 , what is its reported inhibition?
stdout: 1.38

stdin: Need inhibition of CCC(C)NC(=O)CN(c1ccc(OC)cc1)S(=O)(=O)c1ccc(NC(C)=O)cc1 (stereo not drawn) , thanks.
stdout: -3.53

stdin: So what's the measured inhibition for this one? Cn1c(=O)c2cc(S(=O)(=O)N3CCN(c4cccc(C(F)(F)F)c4)CC3)ccc2n(C)c1=O
stdout: 3.54

stdin: # query: inhibition of entry CC1(C)Cc2c(C#N)c(NCCCO)nc(-c3ccccc3)c2CO1
stdout: -2.42

// data source = PubChem BioAssay AID606
